This listing pairs molecules with measured pIC50.
test target: Integrin alpha-4/beta-1 (Homo sapiens, UniProt P05556+P13612)
Sequence (P05556 whole entry): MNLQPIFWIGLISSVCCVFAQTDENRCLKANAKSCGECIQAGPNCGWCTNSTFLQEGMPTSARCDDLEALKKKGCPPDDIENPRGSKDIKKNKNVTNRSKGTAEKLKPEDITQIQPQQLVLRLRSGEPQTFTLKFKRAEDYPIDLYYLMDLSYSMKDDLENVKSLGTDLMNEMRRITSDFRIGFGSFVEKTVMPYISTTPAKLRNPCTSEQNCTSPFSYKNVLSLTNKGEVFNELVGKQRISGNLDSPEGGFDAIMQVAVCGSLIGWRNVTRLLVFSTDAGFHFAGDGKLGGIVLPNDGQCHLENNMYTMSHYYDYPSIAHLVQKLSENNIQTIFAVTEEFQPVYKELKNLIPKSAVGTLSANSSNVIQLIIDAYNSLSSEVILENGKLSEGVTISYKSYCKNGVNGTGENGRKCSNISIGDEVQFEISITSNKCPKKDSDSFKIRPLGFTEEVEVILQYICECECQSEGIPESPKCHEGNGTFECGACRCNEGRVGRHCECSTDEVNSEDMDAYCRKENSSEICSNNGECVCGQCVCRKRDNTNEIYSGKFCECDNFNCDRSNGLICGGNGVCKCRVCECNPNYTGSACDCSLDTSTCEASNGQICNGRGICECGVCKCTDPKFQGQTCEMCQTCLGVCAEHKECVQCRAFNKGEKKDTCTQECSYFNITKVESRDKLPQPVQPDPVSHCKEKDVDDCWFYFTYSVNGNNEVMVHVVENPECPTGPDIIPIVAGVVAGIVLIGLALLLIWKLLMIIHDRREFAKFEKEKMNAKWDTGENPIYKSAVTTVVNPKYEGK
Sequence (P13612 whole entry): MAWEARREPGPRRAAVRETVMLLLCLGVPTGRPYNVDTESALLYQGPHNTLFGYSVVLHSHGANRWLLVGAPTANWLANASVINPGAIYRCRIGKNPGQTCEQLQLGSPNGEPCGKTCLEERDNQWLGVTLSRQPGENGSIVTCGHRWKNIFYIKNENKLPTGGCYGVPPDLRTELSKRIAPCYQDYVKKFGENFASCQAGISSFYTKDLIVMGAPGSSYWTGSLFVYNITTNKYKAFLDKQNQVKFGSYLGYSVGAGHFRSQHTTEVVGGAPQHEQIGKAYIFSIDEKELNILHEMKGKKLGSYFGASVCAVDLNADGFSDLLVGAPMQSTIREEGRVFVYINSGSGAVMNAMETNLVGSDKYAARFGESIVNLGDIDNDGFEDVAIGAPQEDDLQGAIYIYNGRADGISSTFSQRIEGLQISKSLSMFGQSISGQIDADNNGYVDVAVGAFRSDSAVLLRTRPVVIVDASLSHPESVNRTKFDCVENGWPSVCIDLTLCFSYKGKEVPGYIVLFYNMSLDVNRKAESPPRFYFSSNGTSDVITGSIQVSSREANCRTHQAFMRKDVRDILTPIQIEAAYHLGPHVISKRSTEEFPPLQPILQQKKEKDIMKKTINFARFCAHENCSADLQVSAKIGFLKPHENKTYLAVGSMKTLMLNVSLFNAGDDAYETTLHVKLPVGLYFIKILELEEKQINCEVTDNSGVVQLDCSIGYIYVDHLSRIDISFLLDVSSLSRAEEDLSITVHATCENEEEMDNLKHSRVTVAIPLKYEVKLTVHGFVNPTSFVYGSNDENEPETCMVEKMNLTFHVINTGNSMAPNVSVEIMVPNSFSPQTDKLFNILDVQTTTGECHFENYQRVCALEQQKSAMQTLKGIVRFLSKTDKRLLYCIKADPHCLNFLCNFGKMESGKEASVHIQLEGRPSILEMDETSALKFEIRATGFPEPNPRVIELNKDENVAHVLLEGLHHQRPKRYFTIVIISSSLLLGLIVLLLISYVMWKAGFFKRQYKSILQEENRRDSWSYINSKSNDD
test details: Inhibition of [Ca2+]/Mg2+ unactivated state of very late antigen 4 (VLA-4)
Assay type: protein-complex assay
# reply with the number alone; pIC50 is -log10 of concentration in mol/L

The molecule O=C(O)[C@H](Cc1ccc2[nH]c(-c3c(Cl)cccc3Cl)nc2c1)NC(=O)[C@@H]1CCN1S(=O)(=O)c1cc(Cl)cc(Cl)c1 , tested on Integrin alpha-4/beta-1 (Homo sapiens, UniProt P05556+P13612), showed pIC50 of 8.74

====

test target: Integrin alpha-4/beta-1 (Homo sapiens, UniProt P05556+P13612)
test details: Inhibition of Mn2+ activated state of very late antigen 4 (VLA-4)
Format: protein-complex assay
quantity name: pIC50
pIC50 is defined as minus the log10 of a concentration measured in mol/L.

Here's what some known entries look like.
O=C(N[C@@H](Cc1ccc2[nH]c(-c3c(Cl)cccc3Cl)nc2c1)C(=O)O)c1c(Cl)cccc1Cl
9.16
O=C(N[C@@H](Cc1ccc2oc(-c3c(Cl)cccc3Cl)nc2c1)C(=O)O)c1c(Cl)cccc1Cl
9.10

# next compound below
pIC50 reading for O=C(Nc1ccc(C[C@H](NC(=O)[C@@H]2CCN2S(=O)(=O)c2cc(Cl)cc(Cl)c2)C(=O)O)cc1)c1c(Cl)cccc1Cl : 9.57

====

test target: Integrin alpha-4/beta-7 (Homo sapiens, UniProt P13612+P26010)
Sequence (P26010 whole entry, one chain of several): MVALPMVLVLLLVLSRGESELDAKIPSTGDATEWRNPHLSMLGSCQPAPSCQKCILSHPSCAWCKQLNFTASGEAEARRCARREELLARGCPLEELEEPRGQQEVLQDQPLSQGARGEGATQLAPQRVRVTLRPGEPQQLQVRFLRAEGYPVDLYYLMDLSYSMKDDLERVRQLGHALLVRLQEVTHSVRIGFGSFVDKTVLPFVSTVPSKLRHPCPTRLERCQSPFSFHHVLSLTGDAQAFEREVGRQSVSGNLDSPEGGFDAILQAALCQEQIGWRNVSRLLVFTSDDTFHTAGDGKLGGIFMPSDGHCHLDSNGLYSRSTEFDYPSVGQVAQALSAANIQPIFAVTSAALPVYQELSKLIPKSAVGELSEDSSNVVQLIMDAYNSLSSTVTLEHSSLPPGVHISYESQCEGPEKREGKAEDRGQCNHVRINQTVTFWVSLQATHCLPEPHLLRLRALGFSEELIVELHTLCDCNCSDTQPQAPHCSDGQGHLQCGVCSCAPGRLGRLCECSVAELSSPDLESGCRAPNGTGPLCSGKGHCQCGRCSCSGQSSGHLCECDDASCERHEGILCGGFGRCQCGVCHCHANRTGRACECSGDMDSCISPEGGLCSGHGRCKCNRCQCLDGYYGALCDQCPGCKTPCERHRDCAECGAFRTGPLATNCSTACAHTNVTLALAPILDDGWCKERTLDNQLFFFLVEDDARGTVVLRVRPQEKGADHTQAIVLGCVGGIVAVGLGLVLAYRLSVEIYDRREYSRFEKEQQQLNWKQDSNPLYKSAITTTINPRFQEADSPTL
test details: Inhibition of Mn2+ activated state of alpha4-beta7 integrin
Measured pIC50, listed per entry for reference.
# pIC50: negative log10 of molar concentration; output just the value

O=C(Nc1ccc(C[C@H](NC(=O)[C@@H]2CCN2S(=O)(=O)c2cc(Cl)cc(Cl)c2)C(=O)O)cc1)c1c(Cl)cccc1Cl
7.66
O=C(N[C@@H](Cc1ccc2oc(-c3c(Cl)cccc3Cl)nc2c1)C(=O)O)c1c(Cl)cncc1Cl
8.37
O=C(O)[C@H](Cc1ccc2nc(-c3c(Cl)cccc3Cl)oc2c1)NC(=O)[C@@H]1CCN1S(=O)(=O)c1cc(Cl)cc(Cl)c1
5.77
O=C(O)[C@H](Cc1ccc2[nH]c(-c3c(Cl)cccc3Cl)nc2c1)NC(=O)[C@@H]1CCN1S(=O)(=O)c1cc(Cl)cc(Cl)c1
6.98

Record O=C(N[C@@H](Cc1ccc2oc(-c3c(Cl)cccc3Cl)nc2c1)C(=O)O)c1c(Cl)cccc1Cl . Reported pIC50: 8.26

Short answer for O=C(O)[C@H](Cc1ccc2oc(-c3c(Cl)cccc3Cl)nc2c1)NC(=O)[C@@H]1CCN1S(=O)(=O)c1cc(Cl)cc(Cl)c1 : pIC50 was 6.75

pIC50 recorded for this molecule, O=C(N[C@@H](Cc1ccc2[nH]c(-c3c(Cl)cccc3Cl)nc2c1)C(=O)O)c1c(Cl)cccc1Cl , is 8.49

====

test target: Integrin alpha-4/beta-1 (Homo sapiens, UniProt P05556+P13612)
test details: Inhibition of Mn2+ activated state of very late antigen 4 (VLA-4)
Format: protein-complex assay
quantity name: pIC50
// pIC50: -log10(molar conc.)

The measured pIC50 that O=C(O)[C@H](Cc1ccc2[nH]c(-c3c(Cl)cccc3Cl)nc2c1)NC(=O)[C@@H]1CCN1S(=O)(=O)c1cc(Cl)cc(Cl)c1 showed for Integrin alpha-4/beta-1 (Homo sapiens, UniProt P05556+P13612) is 9.27
